B1: Drp1 (dynamin-related protein Drp1), wild type [not stated] / GST-MiD51^133-463, wild type [human] (parent complex)
chain 1: MEALIPVINKLQDVFNTVGADIIQLPQIVVVGTQSSGKSSVLESLVGRDLLPRGTGIVTRRPLILQLVHVSQEDKRKTTGEENGVEAEEWGKFLHTKNKLYTDFDEIRQEIENETERISGNNKGVSPEPIHLKIFSPNVVNLTLVDLPGMTKVPVGDQPKDIELQIRELILRFISNPNSIILAVTAANTDMATSEALKISREVDPDGRRTLAVITKLDLMDAGTDAMDVLMGRVIPVKLGIIGVVNRSQLDINNKKSVTDSIRDEYAFLQKKYPSLANRNGTKYLARTLNRLLMHHIRDCLPELKTRINVLAAQYQSLLNSYGEPVDDKSATLLQLITKFATEYCNTIEGTAKYIETSELCGGARICYIFHETFGRTLESVDPLGGLNTIDILTAIRNATGPRPALFVPEVSFELLVKRQIKRLEEPSLRCVELVHEEMQRIIQHCSNYSTQELLRFPKLHDAIVEVVTCLLRKRLPVTNEMVHNLVAIELAYINTKHPDFADACGLMNNNIEEQRRNRLARELPSAVSRDKVASGGGGVGDGVQEPTTGNWRGMLKTSKAEELLAEEKSKPIPIMPASPQKGHAVNLLDVPVPVARKLSAREQRDCEVIERLIKSYFLIVRKNIQDSVPKAVMHFLVNHVKDTLQSELVGQLYKSSLLDDLLTESEDMAQRRKEAADMLKALQGASQIIAEIRETHLW
chain 2: MSLQEKLLTYYRNRAAIPAGEQARAKQAAVDICAELRSFLRAKLPDMPLRDMYLSGSLYDDLQVVTADHIQLIVPLVLEQNLWSCIPGEDTIMNVPGFFLVRRENPEYFPRGSSYWDRCVVGGYLSPKTVADTFEKVVAGSINWPAIGSLLDYVIRPAPPPEALTLEVQYERDKHLFIDFLPSVTLGDTVLVAKPHRLAQYDNLWRLSLRPAETARLRALDQADSGCRSLCLKILKAICKSTPALGHLTASQLTNVILHLAQEEADWSPDMLADRFLQALRGLISYLEAGVLPSALNPKVNLFAELTPEEIDELGYTLYCSLSEPEVLLQT

Variants of: B1
Test: GST pull-down, SDS-PAGE band quantification; parent: 0.15; read off a plot

Variant Label: chain 1 S600D
response: ~0.16 molar ratio
--
Variant Label: chain 1 G401A, chain 1 P402A, chain 1 R403A, chain 1 P404A
response: ~0.064 molar ratio
--
Variant Label: chain 1 S579D
response: ~0.19 molar ratio
--
Variant Label: chain 1 A395D
response: ~0.084 molar ratio
--
Variant Label: chain 1 G350D, chain 1 G401A, chain 1 P402A, chain 1 R403A, chain 1 P404A
response: ~0.017 molar ratio
--
Variant Label: chain 1 G350D, chain 1 A395D
response: ~0.01 molar ratio
--
Variant Label: chain 1 G350D
response: ~0.089 molar ratio
--
Variant Label: chain 1 A395D, chain 1 G401A, chain 1 P402A, chain 1 R403A, chain 1 P404A
response: ~0.012 molar ratio
